Tested on: MDA-MB-435
Test: NCI tumour cell line growth inhibition, 48 h
Measure name: TGI

// solved cases for TGI follow
INSERT INTO measurements (molecule, measure_name, measured_value) VALUES
  ('C=C(C=O)C1CC(=O)C(C(=O)OC)[C@@H]2O[C@@](C)(CC2=O)C[C@@H]2OC(=O)[C@]3(O[C@@H]23)[C@@H](C(=O)OC)C1 (some centres undefined)', 'TGI', '33 µM'),
  ('O=C(c1ccccc1Nc1ccnc(C(F)(F)F)c1)N1CCN(c2cccc(Cl)c2)CC1', 'TGI', '66.7 µM'),
  ('COc1ccc(C(O)c2ccc3c(c2)OCO3)cc1 (centres undefined)', 'TGI', '> 100 µM'),
  ('COc1cc2cc(C(=O)N3CC(CCl)c4c3cc(N)c3ccccc43)[nH]c2cc1OCCN(C)C (centres undefined)', 'TGI', '< 0.005 µM'),
  ('C/C(=C\c1ccc(Cl)cc1)C(C)(C)C(=O)O', 'TGI', '> 100 µM');

Hi team, please reply with TGI for each item in this list.
1. O=C(c1ccccc1)C1C(C(=O)c2ccccc2)N1Cc1ccccc1 (centres undefined)
2. CCN1CCN(c2nc(NNC(=O)Cc3ccccc3)nc(N3CCN(C(c4ccccc4)c4ccccc4)CC3)n2)CC1
3. C/C(O)=C(\C=N\C(N)=S)C(=O)Nc1ccccc1C
4. C=C1CCC2C3(C)COC(c4ccc(NC(C)=O)cc4)OC3CCC2(C)C1C/C=C1/C(=O)OCC1O (centres undefined)
5. CC1=C(C(=O)OCCc2ccc([N+](=O)[O-])cc2)C(c2ccccc2[N+](=O)[O-])C(C(=O)OC(C)C)=C(C)N1 (centres undefined)

1. 68.3 µM
2. 3.2 µM
3. > 100 µM
4. > 100 µM
5. > 100 µM

Consider the following items and state reported TGI for each.
1. CN1/C(=C\C(I)C(I)C2=[N+](C)c3ccccc3C2(C)C)C(C)(C)c2ccccc21 (centres undefined)
2. COc1ccc2c(c1)CCC1C2CC[C@@]2(C)C1CC[C@@]2(O)CNC(=O)/C=C/c1ccc(O)c(OC)c1 (some centres undefined)
3. CCOC(=O)c1sc(-c2ccc(OS(=O)(=O)c3cccs3)c(C=O)c2)nc1C
4. S=c1nc[nH]c2c1ncn2Cc1ccco1
5. Cc1cc2ccccc2n1CC(=O)NCC(C)C
6. CN(C(=O)C1(C(=O)C=[N+]=[N-])CC1)c1ccccc1
7. N#CC1=C(N)C(C#N)(C#N)C(c2ccc(F)cc2)C=C1C1CC1 (centres undefined)
8. CCOC(=O)c1ccc2nc(NC(=O)COC(=O)CSc3nc(C)cc(C)n3)sc2c1

1. 11.6 µM
2. > 100 µM
3. 3.05 µM
4. > 100 µM
5. > 100 µM
6. > 100 µM
7. 12.4 µM
8. > 100 µM

Find the recorded TGI belonging to CC(C)CCC[C@@H](C)[C@H]1CC[C@H]2[C@@H]3CC=C4C[C@@H](OC(=O)c5cccc6c(=O)c7ccccc7[nH]c56)CC[C@]4(C)[C@H]3CC[C@]12C and report it.
> 75 µM

====

Tested on: KM12 colon
Assay: NCI tumour cell line growth inhibition, 48 h
What log10(TGI) was measured for each of the following?
Reminder: these figures are log10 of reported TGI, in µM before transformation.

Some entries whose results are on file:
INSERT INTO assay_data (compound, measured_value) VALUES
  ('O=C1C2c3[nH]c4ccccc4c3[C@@H]3CCCCCCCCCCC3C2C(=O)N1c1ccccc1 (stereo partly drawn)', 1.62),
  ('COc1ccc(SC2c3cc(OC)c(OC)cc3Oc3nc(N)c(C#N)c(N)c32)cc1 (stereo not drawn)', 0.48);

For each of the compounds below, note its log10(TGI).
1. CCCCCCCCCCCCn1c(C)nc2ccccc21
2. Cc1csc2c1C(=O)c1ccsc1C2=O
3. Nc1ccc(-c2nc3ccc4[nH]ncc4c3c3c2CCCC3)cc1F
4. N#Cc1c(NC(=O)c2ccccc2)sc2c1CCC(=O)C2

1.46
1.04
0.80
0.72

// each listed compound needs a value for log10(TGI)
1. CCSc1oc(-c2ccccc2)nc1[P+](c1ccccc1)(c1ccccc1)c1ccccc1
2. COc1ccc(-c2nn(-c3cccc(Cl)c3)cc2C=C(C#N)C#N)cc1
3. CC(C)C[C@H](NC(=O)[C@H](CCc1ccccc1)NC(=O)CN1CCOCC1)C(=O)N[C@@H](Cc1ccccc1)C(=O)N[C@@H](CC(C)C)C(=O)[C@@]1(C)CO1
4. CC(=O)OCC1OC(OC2C(COC(C)=O)OC(OCCC[S-])C(OC(C)=O)C2OC(C)=O)C(OC(C)=O)C(OC(C)=O)C1OC(C)=O.[Au+].c1ccc(CN2[CH-]N(Cc3ccccc3)C(c3ccccc3)=C2c2ccccc2)cc1 (stereo not drawn)
5. COc1cccc(NC(=O)CSc2nnc(-c3ccc(N=Cc4ccc(Cl)cc4)cc3)o2)c1

1. 0.04
2. 0.95
3. -1.70
4. 1.21
5. 1.50
